Data provenance is the supplement of paper PMC9170038.

Test system: MS2 coat protein
Experiment: apparent KD of MS2 coat protein; designed switch direction (-1 OFF switch, 1 ON switch): -1; higher = weaker reporter binding
Conditions: Eterna round: R95; input ligand: microRNA oligo, concentration not stated
# key: entry, value: apparent KD of MS2 coat protein
outcome.measure: apparent KD of MS2 coat protein (nM)

{"columns": ["monomer.sequence", "outcome.measure", "val"],
 "data": [
  ["UCGGUGCGAGGAUAUACGUUUGCGCGUUUUCGUUUGCGCGUACAUGAGGAUCACCCAUGUAGAAGGCGCGCGGC [Apr-15 SS2-12] (puzzle: Exclusion 2)", "apparent KD of MS2 coat protein", 11.8],
  ["CCUCGACAUGAGGAUCACCCAUGUCAGGAUAUUGUGUAUCGGGUUUUUUACGGAAAGGCGAGAAGGGAUGUGUG [LRO-Excl1-10] (puzzle: Exclusion 1)", "apparent KD of MS2 coat protein", 15.5],
  ["UUUAAUUUUUUUUUUUUACAAGCUUUUUGCUCGUCUUAUACAUGAGGAUCACCCAUGUAAGUGAGGGAUAAAUUAUC [JMF 40] (puzzle: Sensor v3, turn-off variant 2)", "apparent KD of MS2 coat protein", 22.8],
  ["AGUACUAACACGAAAGUGUUAGUACAACAAGCUUGUGAAACAUGAGGAUCACCCAUGUCCUCAUAAGCUCGUCUUAU [salish99_TOv2_r3_042] (puzzle: Sensor v3, turn-off variant 2)", "apparent KD of MS2 coat protein", 463],
  ["CGUGACUCAGGAUAUUCAUAAUAUCACAUGAGGAUCACCCAUGUCCAGCGAAAGCUGGAGGGAGAAGGGAGUCACG [Fiskers Ex 5 - 37] (puzzle: Exclusion 5)", "apparent KD of MS2 coat protein", 151],
  ["UAAAGAGCAGGAUAUCUAAUGUAUCACAUGAGGAUCACCCAUGUCCAGCGAAAGCUGGAGGGAGAAGGGCUCUAAU [Mat - Exclusion 5 - Eli mod - D103] (puzzle: Exclusion 5)", "apparent KD of MS2 coat protein", 182],
  ["AUACCACGAGGAUAUCGUCUAUUUCACAUGAGGAUCACCCAUGUUAUCUUUGUUUCGUUUCGAGAAGGCGUGUUUU [JR_E5_Sub077] (puzzle: Exclusion 5)", "apparent KD of MS2 coat protein", 30.1],
  ["AUAUAUAGUGUGAGGAUAUGCUGGUCCUUGGAUCAGCAGAAGGCACAUGAGGAUCACCCAUGUAGUUUAUUUUG [Mat - Exclusion 4 - JL Mod - D6] (puzzle: Brourd's mod of Exclusion 4)", "apparent KD of MS2 coat protein", 17.3],
  ["GAAAAGGUAGGAUAUACGAAAACAAAGGGUAGAAACAAAACACAUGAGGAUCACCCAUGUAGAAGGACCAAAAG [salish99_ex2_r3_097] (puzzle: Exclusion 2)", "apparent KD of MS2 coat protein", 25.6],
  ["CCGGAAAUAGAGGAUAUCGUACUGGAUACAGUACGAGAAGGCUAUACAUGAGGAUCACCCAUGUGUCCUACCGG [Fiskers Ex 6 - 61] (puzzle: Exclusion 6)", "apparent KD of MS2 coat protein", 16.1],
  ["GCAGUGCGAGGAUAUACAUGAGGAUCACCCAUGUGAGAAGAAUAAGUGAGGAAGAAAAGUAGAAGGCGCGUUGG [Mat - Exclusion 3 - Mod of Salish D68] (puzzle: Exclusion 3)", "apparent KD of MS2 coat protein", 47.4],
  ["UUUUAACAUGAGGAUCACCCAUGUGAGGAUAUCGAAAUUUAUAUUUAUAUUUAUAAAACGAGAAGGCACAUUUU [JMF 91] (puzzle: Exclusion 1)", "apparent KD of MS2 coat protein", 113],
  ["AAUAACAGAGGAUAUACUAUUUUAUGUAUUUAUUAUUUUGAACAUGAGGAUCACCCAUGUAGAAGGCUGAUUAA [JMF 47] (puzzle: Exclusion 2)", "apparent KD of MS2 coat protein", 28.7],
  ["GUGUAGACAGGAUAUGCUUUGAGCAUAUGAGAGUAUGCUCUACAUGAGGAUCACCCAUGUAGAAGGGUCUACAC [LRO-Excl2-01] (puzzle: Exclusion 2)", "apparent KD of MS2 coat protein", 11],
  ["CCUUUGUCAGGAUAUCAGAACACGCCCGUAGGGAGUGCAAAUGAGAAGGGACAUGAGGAUCACCCAUGUACAGA [Leonveti] (puzzle: Exclusion 4)", "apparent KD of MS2 coat protein", 29.4],
  ["GGAAAGCAAGGAUAUACAAGUAAACGACGGAAAGUAGAGAGACAUGAGGAUCACCCAUGUAGAAGGUGCGAGAG [JR_Exclu2_Sub035] (puzzle: Exclusion 2)", "apparent KD of MS2 coat protein", 26.9],
  ["GAUUAUGCGAGCUUUAGGGACAUGAGGAUCACCCAUGUUCGUCUUAUUGGUCUGAAUACACUGACAUACCUAAAUCU [JMF 56] (puzzle: Sensor v3, turn-off variant 1)", "apparent KD of MS2 coat protein", 21.8],
  ["AAUAAGCUAGGAUAUACAUGAGGAUCACCCAUGUGAGGGCACCGCCGGCGCGGGCCCGGUAGAAGGAGUCAUAA [Exc;s3-V] (puzzle: Exclusion 3)", "apparent KD of MS2 coat protein", 34.3],
  ["CAGUACUGAGGAUAUACAUGAGGAUCACCCAUGUGUUCCAGCUAGGAAACUAGCAAAAGUAGAAGGCAGUACUG [salish99_ex3_r3_064] (puzzle: Exclusion 3)", "apparent KD of MS2 coat protein", 19.6],
  ["CAGGUUAGAGGAUAUACGUAGGUACAGAUCUGUGUGUUCCUACAUGAGGAUCACCCAUGUAGAAGGCUAUCCUG [LRO-Excl2-09] (puzzle: Exclusion 2)", "apparent KD of MS2 coat protein", 61.9],
  ["CCAGGCAGUGUGAGGAUAUGCUGGUCCUUGGAUCAGCAGAAGGCACAUGAGGAUCACCCAUGUGAAGAGCUUGG [JL bmx4 3.24] (puzzle: Brourd's mod of Exclusion 4)", "apparent KD of MS2 coat protein", 24.1]
]}
